Tested on: SW872
Assay: relative viability vs DMSO control (72 h) (fraction); higher = more viable cells
Conditions: 0.00152 µM
quantity: relative viability

[
  {
    "molecule": "Cc1cc(F)c(C(=O)Nc2cccc(-c3nncn3C(C)C)n2)cc1-n1cnc(C2CC2)c1 [Selonsertib]",
    "measuredNumber": 1.02
  },
  {
    "molecule": "CCOc1cc2ncc(C#N)c(Nc3ccc(OCc4ccccn4)c(Cl)c3)c2cc1NC(=O)/C=C/CN(C)C [Neratinib]",
    "measuredNumber": 1.03
  },
  {
    "molecule": "COc1cc(N2CCC(N3CCN(C)CC3)CC2)ccc1Nc1ncc(Cl)c(Nc2ccccc2P(C)(C)=O)n1 [Brigatinib]",
    "measuredNumber": 0.967
  },
  {
    "molecule": "CCS(=O)(=O)N1CC(CC#N)(n2cc(-c3ncnc4[nH]ccc34)cn2)C1 [Baricitinib]",
    "measuredNumber": 1.03
  },
  {
    "molecule": "CS(=O)(=O)CCNCc1ccc(-c2ccc3ncnc(Nc4ccc(OCc5cccc(F)c5)c(Cl)c4)c3c2)o1 [Lapatinib]",
    "measuredNumber": 1.03
  },
  {
    "molecule": "COc1cc2ncnc(Nc3ccc(F)c(Cl)c3)c2cc1OCCCN1CCOCC1 [Gefitinib]",
    "measuredNumber": 1.05
  },
  {
    "molecule": "CN(C)C(=O)c1cc2cnc(Nc3ccc(N4CCNCC4)cn3)nc2n1C1CCCC1 [Ribociclib]",
    "measuredNumber": 1.02
  },
  {
    "molecule": "O=C1CCc2c(Oc3ccc4c(c3)[C@@H]3[C@H](O4)[C@H]3c3nc4cc(C(F)(F)F)ccc4[nH]3)ccnc2N1 [Lifirafenib]",
    "measuredNumber": 1.01
  }
]

---

Tested on: SW872
Assay: relative viability vs DMSO control (72 h) (fraction); higher = more viable cells
Conditions: 0.01372 µM

[
  {
    "molecule": "Cc1cc(F)c(C(=O)Nc2cccc(-c3nncn3C(C)C)n2)cc1-n1cnc(C2CC2)c1",
    "relative viability": 1.03
  },
  {
    "molecule": "O=C1CCc2c(Oc3ccc4c(c3)[C@@H]3[C@H](O4)[C@H]3c3nc4cc(C(F)(F)F)ccc4[nH]3)ccnc2N1",
    "relative viability": 1.03
  },
  {
    "molecule": "O=C(/C=C\\n1cnc(-c2cc(C(F)(F)F)cc(C(F)(F)F)c2)n1)NNc1cnccn1 [Selinexor]",
    "relative viability": 1.06
  },
  {
    "molecule": "CCOc1cc2ncc(C#N)c(Nc3ccc(OCc4ccccn4)c(Cl)c3)c2cc1NC(=O)/C=C/CN(C)C",
    "relative viability": 1.01
  },
  {
    "molecule": "CO[C@H]1C[C@@H]2CC[C@@H](C)[C@@](O)(O2)C(=O)C(=O)N2CCCC[C@H]2C(=O)O[C@H]([C@H](C)C[C@@H]2CC[C@@H](OC(=O)C(C)(CO)CO)[C@H](OC)C2)CC(=O)[C@H](C)/C=C(\\C)[C@@H](O)[C@@H](OC)C(=O)[C@H](C)C[C@H](C)/C=C/C=C/C=C/1C",
    "relative viability": 0.643
  },
  {
    "molecule": "COc1cc(Nc2ncc3c(n2)-c2ccc(Cl)cc2C(c2c(F)cccc2OC)=NC3)ccc1C(=O)O",
    "relative viability": 1.01
  }
]

---

Test system: SYO-1
Assay: standardised AUC of viability dose-response curve (72 h) (fraction (0-1)); higher = less growth inhibition (more resistant)
Listing of entries alongside the reported standardised AUC.
quantity: standardised AUC

[
  {
    "molecule": "CCOc1cc2ncc(C#N)c(Nc3ccc(OCc4ccccn4)c(Cl)c3)c2cc1NC(=O)/C=C/CN(C)C [NERATINIB]",
    "quantity": "standardised AUC",
    "measuredNumber": 0.818
  },
  {
    "molecule": "Cc1cc2c(F)c(Oc3ncnn4cc(OC[C@@H](C)OC(=O)[C@H](C)N)c(C)c34)ccc2[nH]1 [BRIVANIB ALANINATE]",
    "quantity": "standardised AUC",
    "measuredNumber": 0.943
  },
  {
    "molecule": "COc1cc(Nc2ncc3c(n2)-c2ccc(Cl)cc2C(c2c(F)cccc2OC)=NC3)ccc1C(=O)O [ALISERTIB]",
    "quantity": "standardised AUC",
    "measuredNumber": 0.732
  },
  {
    "molecule": "CN(C)CCCOc1ccc(-c2ccc3ncc4c(c3c2)n(C2CCOCC2)c(=O)n4C)cn1 [AZD-0156]",
    "quantity": "standardised AUC",
    "measuredNumber": 0.777
  },
  {
    "molecule": "COc1cc2ncnc(Nc3ccc(F)c(Cl)c3)c2cc1OCCCN1CCOCC1 [GEFITINIB]",
    "quantity": "standardised AUC",
    "measuredNumber": 0.945
  },
  {
    "molecule": "O=S(=O)(c1cccc2c(O)nccc12)N1CCCNCC1 [HYDROXYFASUDIL]",
    "quantity": "standardised AUC",
    "measuredNumber": 0.958
  },
  {
    "molecule": "CC(=O)c1c(C)c2cnc(Nc3ccc(N4CCNCC4)cn3)nc2n(C2CCCC2)c1=O [PALBOCICLIB]",
    "quantity": "standardised AUC",
    "measuredNumber": 0.772
  },
  {
    "molecule": "CNC(=O)c1cccc2cc(Oc3ccnc4cc(OCC5(N)CC5)c(OC)cc34)ccc12 [LUCITANIB]",
    "quantity": "standardised AUC",
    "measuredNumber": 0.74
  }
]

---

Listing of entries alongside the reported standardised AUC.
Test system: RD-ES
Assay: standardised AUC of viability dose-response curve (72 h) (fraction (0-1)); higher = less growth inhibition (more resistant)
quantity: standardised AUC

[
  {
    "compound": "CNC(=O)c1c(C)oc2cc(Oc3ncnc4cc(OC)c(OC)cc34)ccc12",
    "quantity": "standardised AUC",
    "measuredNumber": 0.984
  },
  {
    "compound": "CCN1CCN(c2ccc(Nc3cc(N(C)C(=O)Nc4c(Cl)c(OC)cc(OC)c4Cl)ncn3)cc2)CC1",
    "quantity": "standardised AUC",
    "measuredNumber": 0.926
  },
  {
    "compound": "O=C(/C=C\\n1cnc(-c2cc(C(F)(F)F)cc(C(F)(F)F)c2)n1)NNc1cnccn1 [SELINEXOR]",
    "quantity": "standardised AUC",
    "measuredNumber": 0.751
  },
  {
    "compound": "COc1cc(Nc2ncc3c(n2)-c2ccc(Cl)cc2C(c2c(F)cccc2OC)=NC3)ccc1C(=O)O",
    "quantity": "standardised AUC",
    "measuredNumber": 0.656
  },
  {
    "compound": "O=S(=O)(c1cccc2c(O)nccc12)N1CCCNCC1 [HYDROXYFASUDIL]",
    "quantity": "standardised AUC",
    "measuredNumber": 1
  },
  {
    "compound": "O=C(c1ccc(F)c(F)c1Nc1ccc(I)cc1F)N1CC(O)([C@@H]2CCCCN2)C1",
    "quantity": "standardised AUC",
    "measuredNumber": 0.953
  },
  {
    "compound": "CCS(=O)(=O)N1CC(CC#N)(n2cc(-c3ncnc4[nH]ccc34)cn2)C1",
    "quantity": "standardised AUC",
    "measuredNumber": 1
  },
  {
    "compound": "CNC(=O)c1cccc2cc(Oc3ccnc4cc(OCC5(N)CC5)c(OC)cc34)ccc12",
    "quantity": "standardised AUC",
    "measuredNumber": 0.964
  }
]

---

Listing of entries alongside the reported relative viability.
Test system: SW1353
Assay: relative viability vs DMSO control (72 h) (fraction); higher = more viable cells
Details: 0.00457 µM

[
  {
    "compound": "C[C@@H]1CN(C(=O)c2ccc(NC(=O)c3cc(O[C@H](C)c4c(Cl)ccc(F)c4Cl)c(N)nn3)cc2)C[C@H](C)N1",
    "target": "SW1353",
    "relative viability": 0.956
  },
  {
    "compound": "COC(=O)c1ccc2c(c1)NC(=O)/C2=C(\\Nc1ccc(N(C)C(=O)CN2CCN(C)CC2)cc1)c1ccccc1",
    "target": "SW1353",
    "relative viability": 1.04
  },
  {
    "compound": "CNC(=O)c1c(C)oc2cc(Oc3ncnc4cc(OC)c(OC)cc34)ccc12",
    "target": "SW1353",
    "relative viability": 1.01
  },
  {
    "compound": "Cc1[nH]c(/C=C2\\C(=O)Nc3ccccc32)c(C)c1CCC(=O)O [Orantinib]",
    "target": "SW1353",
    "relative viability": 1.08
  }
]
